EXPERIMENTAL PROTOCOL: Pharmacokinetics in male CD-1 mice
Format: in vivo
RUN PARAMETERS: mouse, plasma, 30 mg/kg PO vs 3 mg/kg IV, calculated from AUC0-inf with nominal dose, read-out: Bioavailability (% F)
RESULT TYPE: bioavailability

Item: C=C(F)C(=O)N1CCN(c2nc(OC[C@@H]3CCCN3C)nc3cc(-c4cccc5cccc(Cl)c45)cnc23)C[C@@H]1CC#N [Example 2] | bioavailability: 28.8%

====

EXPERIMENTAL PROTOCOL: Pharmacokinetics in male CD-1 mice
Assay type: in vivo
RUN PARAMETERS: mouse, 30 mg/kg PO, mean plasma, read-out: MRT0-inf
RESULT TYPE: MRT inf (h)
Numbers only, in h.

In plain terms, `C=C(F)C(=O)N1CCN(c2nc(OC[C@@H]3CCCN3C)nc3cc(-c4cccc5cccc(Cl)c45)cnc23)C[C@@H]1CC#N` has a documented MRT inf of 4.75
